Biological target: DYRK1B (Homo sapiens, UniProt Q9Y463)
Construct: Purified recombinant kinase was incubated with serial 3-fold dilutions of test compounds
Sequence (Q9Y463 whole entry): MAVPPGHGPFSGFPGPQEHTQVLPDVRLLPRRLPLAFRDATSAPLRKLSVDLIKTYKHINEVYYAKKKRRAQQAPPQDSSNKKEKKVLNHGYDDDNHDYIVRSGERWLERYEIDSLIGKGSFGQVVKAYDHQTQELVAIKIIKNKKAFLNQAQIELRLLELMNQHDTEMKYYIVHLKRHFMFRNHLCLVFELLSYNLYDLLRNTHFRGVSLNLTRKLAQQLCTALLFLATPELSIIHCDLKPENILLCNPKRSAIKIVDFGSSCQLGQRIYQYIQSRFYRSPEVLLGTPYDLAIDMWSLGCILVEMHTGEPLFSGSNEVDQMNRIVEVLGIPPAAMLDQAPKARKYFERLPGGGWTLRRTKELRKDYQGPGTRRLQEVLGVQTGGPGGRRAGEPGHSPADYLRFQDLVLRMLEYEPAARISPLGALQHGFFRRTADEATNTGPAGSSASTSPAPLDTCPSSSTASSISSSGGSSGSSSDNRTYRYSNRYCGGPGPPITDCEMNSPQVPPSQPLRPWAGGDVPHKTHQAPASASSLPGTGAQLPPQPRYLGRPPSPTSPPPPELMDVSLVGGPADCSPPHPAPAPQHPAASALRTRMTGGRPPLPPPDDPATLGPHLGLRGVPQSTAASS
Assay: DYRK1B kinase assay, Reaction Biology Corporation HotSpot technology (33P ATP)
Conditions: purified recombinant kinase, 10 µM ATP, 120 min, room temperature
pIC50: −log10 of the molar value.
Outcome measure: pIC50

// worked examples, pIC50 included
>  <Smiles repr>
COC(=N)c1nc2ccc3ncnc(Nc4ccc(C(F)(F)F)cc4)c3c2s1

>  <Reading>
6.73

$$$$
>  <Smiles repr>
COC(=N)c1nc2ccc3ncnc(Nc4ccc(Cl)cc4)c3c2s1

>  <Reading>
8.32

$$$$
>  <Smiles repr>
COC(=N)c1nc2ccc3ncnc(Nc4ccc(F)cc4F)c3c2s1

>  <Reading>
8.97

$$$$
>  <Smiles repr>
COC(=N)c1nc2ccc3ncnc(Nc4ccc(Cl)cc4Cl)c3c2s1

>  <Reading>
9.55

$$$$

I: COC(=N)c1nc2ccc3ncnc(Nc4ccc(O)c([N+](=O)[O-])c4)c3c2s1
II: COC(=N)c1nc2ccc3ncnc(Nc4ccccc4)c3c2s1
# input // which entry has the larger pIC50 value, I or II ? Pick one and reply with its label.
# output II
